Measurement Target: Genome polyprotein 3C proteinase (Hepatitis A virus)
Assay Summary: Reversible inhibitory activity against Protease
This section presents compounds with their documented IC50 values.

[
  {
    "Cpd Smiles": "CC(=O)N[C@@H](CC(C)C)C(=O)N[C@@H](C)C(=O)N[C@@H](C)C(=O)N[C@@H](C[C@@H]1CCNC1=O)C(=O)Cn1[nH]c(=O)c2c(F)c(F)c(F)c(F)c2c1=O",
    "IC50": "2000 nM"
  },
  {
    "Cpd Smiles": "CC(=O)N[C@@H](CC(C)C)C(=O)N[C@@H](C)C(=O)N[C@@H](C)C(=O)N[C@@H](CCC(=O)N(C)C)C(=O)Cn1[nH]c(=O)c2ccccc2c1=O",
    "IC50": "13000 nM"
  },
  {
    "Cpd Smiles": "CC(=O)N[C@@H](CC(C)C)C(=O)N[C@@H](C)C(=O)N[C@@H](C)C(=O)N[C@@H](C[C@@H]1CCNC1=O)C(=O)Cn1[nH]c(=O)c2c([N+](=O)[O-])cccc2c1=O",
    "IC50": "1600 nM"
  }
]

meta.source: BindingDB's records for doi:10.1016/j.bmcl.2004.05.021
